system: MDA-MB-468 breast; assay: NCI tumour cell line growth inhibition, 48 h
Provide the reported TGI of each item.
Answers are plain numbers, in µM.

{"columns": ["compound", "TGI (µM)"],
 "data": [
  ["COc1cc(/C=C2\\SC(N3CCCCC3)=NC2=O)ccc1OCCCCCCOc1ccc(/C=C2\\SC(N3CCCCC3)=NC2=O)cc1OC", 37.2],
  ["O=CN1N=C(c2cccc(Nc3ccnc4cc(Cl)ccc34)c2)CC1c1ccc(Cl)cc1 (centres undefined)", 3.17],
  ["COc1cc(-c2nn(-c3cccc(NC(=O)CCN4CCN(c5ccccc5)CC4)c3)cc2-c2ccncc2)ccc1Cl", 51.4],
  ["C=CC(=O)Nc1cc2c(Nc3ccc(F)c(Cl)c3)ncnc2cc1C#CC(C)(C)N1CCN(C)CC1", 0.401],
  ["COc1ccc(-c2cc(/C=C/C(=O)c3ccc(N)cc3)[nH]n2)cc1", 2.09]
]}

Your task in this section: give TGI for each listed record.
1. CC1(C)N=C(N)N=C(N)N1c1cccc(CCc2ccccc2)c1
2. CN(C)c1ccc(-c2ccc(-c3ccc(C(=N)N)cn3)o2)cc1

A)
2.51
3.05

* * *

Record form. Attribute: GI50. Fill in for each entry.
system: MDA-MB-468 breast; experiment: NCI tumour cell line growth inhibition, 48 h

Record excerpt, results attached:
{"columns": ["compound", "GI50"],
 "data": [
  ["COc1cc(-c2nn(-c3cccc(NC(=O)CCNc4ccc(N5CCOCC5)cc4)c3)cc2-c2ccncc2)ccc1Cl", "2010 nM"],
  ["COc1ccc(CCC2c3c(cc4c(c3OC)OCO4)CCN2C)cc1 (stereo unspecified)", "6810 nM"],
  ["Cc1ccc(C2CC(c3ccc(Nc4ccnc5cc(Cl)ccc45)cc3)=NN2C=O)cc1 (stereo unspecified)", "1510 nM"],
  ["CC(C)OP(=O)(O)c1ncc(-c2ccc(C(F)(F)F)cc2)c(NC2CCCCCC2)n1", "11200 nM"],
  ["COc1cccc2nc(Nc3cccc(NC(=O)c4ccc(CN5CCN(C)CC5)c(C(F)(F)F)c4)c3)ccc12", "1920 nM"]
]}

Now for a further compound.
Q) Recorded GI50 of C#C[C@]1(O)CC[C@H]2[C@@H]3CC=C4c5nc(N)sc5CC[C@]4(C)[C@H]3CC[C@@]21C , please.
A) 2520 nM

* * *

system: MDA-MB-468 breast; experiment: NCI tumour cell line growth inhibition, 48 h
Provide the reported TGI of each item.
Give bare numbers, in µM.

Please give TGI for each item listed below.
1. C#C[C@]1(O)CC[C@H]2[C@@H]3CC=C4c5nc(N)sc5CC[C@]4(C)[C@H]3CC[C@@]21C
2. Cc1cc(NN=C(c2ccc(O)cc2)c2ccc(O)cc2)c([N+](=O)[O-])cc1[N+](=O)[O-]
3. CC(=O)Oc1cc2cnc3c4cc(OC(C)=O)c(OC(C)=O)cc4ccc3c2cc1OC(C)=O
4. CCc1ccc2c(c1)N(CCO)C1=C(C(=O)OC1)C2c1cc(OC)c(OC)c(OC)c1 (stereo not given)
5. COc1cc2c3c(n(CCCn4ccnc4)c(=O)c2cc1OC)-c1nc2c(cc1C3=O)OCO2

A)
1: 7.03; 2: 36.7; 3: 4.44; 4: 0.347; 5: 0.115
